Reported self-splicing fitness (ln) values for the following sequences.
- PROTOCOL: self-splicing fitness, log relative to wild type (ln ratio); higher = more splicing; Tetrahymena group I intron in knt gene, E. coli kanamycin selection, DiMSum; sequences stand for … in CUCUCU…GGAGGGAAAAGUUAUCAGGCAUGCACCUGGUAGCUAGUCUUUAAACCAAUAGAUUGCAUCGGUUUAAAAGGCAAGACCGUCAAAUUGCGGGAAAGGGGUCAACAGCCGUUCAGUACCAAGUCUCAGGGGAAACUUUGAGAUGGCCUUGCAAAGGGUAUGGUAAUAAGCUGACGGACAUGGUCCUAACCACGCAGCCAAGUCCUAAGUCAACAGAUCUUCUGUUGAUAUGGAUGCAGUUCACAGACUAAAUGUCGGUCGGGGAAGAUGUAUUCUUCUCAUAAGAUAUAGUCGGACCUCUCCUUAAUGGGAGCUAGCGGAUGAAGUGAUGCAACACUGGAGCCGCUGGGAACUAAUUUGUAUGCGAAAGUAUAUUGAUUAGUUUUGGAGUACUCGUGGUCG;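 further: selection with 25 µg/mL kanamycin versus none on LB agar overnight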
- CONDITION SUMMARY: 30 °C
Output spec: single numeric token, no unit.

[[record]]
sequence_string = "AGGGAGCAAUAUUACGCGGU"
reported_measurement = -3.98

[[record]]
sequence_string = "GUGCAGCAAUAUUACGCUCU"
reported_measurement = -1.77

[[record]]
sequence_string = "AUUGAGCAAUAUUACGGCUU"
reported_measurement = -2.62


Task: Look up and state reported self-splicing fitness (ln) for AAUAAGCAAUAUUACGCAAU
Output: -1.59

Task: Look up and state reported self-splicing fitness (ln) for AGGUAGCAAUAUUACGCGGA
Output: -2.06

Task: Look up and state reported self-splicing fitness (ln) for CACCAGCAAUAUUACGAUGA
Output: -1.9

Task: Look up and state reported self-splicing fitness (ln) for UUCAAGCAAUAUUACGAGGU
Output: -3.41

Task: Look up and state reported self-splicing fitness (ln) for CGAAAGCAAUAUUACGAUCG
Output: -3.41

---

- PROTOCOL: self-splicing fitness, log relative to wild type (ln ratio); higher = more splicing; Tetrahymena group I intron in knt gene, E. coli kanamycin selection, DiMSum; sequences stand for … in CUCUCU…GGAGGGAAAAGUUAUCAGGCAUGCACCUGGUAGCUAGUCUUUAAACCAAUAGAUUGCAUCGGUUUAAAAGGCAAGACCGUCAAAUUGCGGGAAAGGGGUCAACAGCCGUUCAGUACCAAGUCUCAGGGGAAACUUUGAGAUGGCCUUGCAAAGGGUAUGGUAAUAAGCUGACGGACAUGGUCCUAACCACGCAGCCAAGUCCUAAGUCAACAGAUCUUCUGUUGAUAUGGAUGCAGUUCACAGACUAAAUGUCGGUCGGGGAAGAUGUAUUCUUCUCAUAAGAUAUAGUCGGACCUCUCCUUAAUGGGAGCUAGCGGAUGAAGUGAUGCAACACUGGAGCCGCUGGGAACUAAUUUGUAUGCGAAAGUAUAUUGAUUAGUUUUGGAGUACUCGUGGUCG
- CONDITION SUMMARY: 30 °C
OBSERVABLE: self-splicing fitness (ln)
Output spec: single numeric token, no unit.

[[record]]
sequence_string = "AAUAAGCAAUAUUACGAUGC"
reported_measurement = -2.4


Task: Look up and state reported self-splicing fitness (ln) for UCACAGCAAUAUUACGAGGG
Output: -2.01

Task: Look up and state reported self-splicing fitness (ln) for UACCAGCAAUAUUACGUGCA
Output: -0.43

Task: Look up and state reported self-splicing fitness (ln) for AGUAAGCAAUAUUACGAAUC
Output: -4.12

Task: Look up and state reported self-splicing fitness (ln) for GGGAAGCAAUAUUACGCUAG
Output: -1.73

Task: Look up and state reported self-splicing fitness (ln) for AGUAAGCAAUAUUACGUACC
Output: -0.632

Task: Look up and state reported self-splicing fitness (ln) for GCCAAGCAAUAUUACGAUCG
Output: -2.24

Task: Look up and state reported self-splicing fitness (ln) for ACGGAGCAAUAUUACGCUUC
Output: -2.92
